- Tested on: ACHN
- MEASUREMENT NOTES: NCI tumour cell line growth inhibition, 48 h
The source made the active and inactive calls. No stated cut-off is given here; in the data, active = GI50 up to about 1.1 µM and inactive = higher.
Outcome codes: active, inactive

COMPOUND	LABEL VALUE
O=C(O)COCC(=O)N(CCOCCN(Cc1ccccc1)C(=O)COCC(=O)O)Cc1ccccc1	inactive
CCc1ccc(/C=C/C(=O)C2CN(CC)CCC2(O)/C=C/c2ccc(CC)cc2)cc1 (stereo not given)	inactive
CC(N)Cc1ccc(Cl)cc1 (stereo not given)	inactive
O=C(O)/C=C/C(=O)N1C/C(=C\c2ccccc2)C(=O)/C(=C/c2ccccc2)C1	inactive
Cc1ccc(C2(N3CCCC3)OC(C)(C)c3cccc4cccc2c34)cc1 (stereo not given)	inactive
Cc1ccccc1NC(=O)C(=O)CC(=O)C1CCOC1=O (stereo not given)	inactive
O=C1c2cccnc2C(=O)c2c1nc1ccccc1c2-c1cncc(-c2c3c(nc4ccccc24)C(=O)c2cccnc2C3=O)c1	active
CC(Oc1ccc2c(-c3ccc(Cl)cc3)cc(=O)oc2c1)C(=O)O (stereo not given)	inactive
COc1ccc(NC(=S)N/N=C\c2ccc(NC(C)=O)cc2)cc1	inactive
Nc1ccc(Nc2c3ccccc3nc3ccccc23)cc1	inactive
CCN(CC)CCOC(=O)CCN1CC2CCC(CC2)C1	inactive
CCOc1c(OC)cc(C2c3cc4c(c(OCC)c3CC3COC(=O)C32)OCO4)cc1OC (stereo not given)	inactive
COc1ccc2nc3c([N+](=O)[O-])ccc(NCCCN(C)C)c3c(N)c2c1	inactive
C/C=C\C1OC1(C)c1cc(=O)c2c(C)cc3c(c2o1)C(=O)c1c(O)c(C2CC(C)(N(C)C)C(OC(C)=O)C(C)O2)cc(C2CC(N(C)C)C(O)C(C)O2)c1C3=O (stereo not given)	active
O=C(CCN1CCCCC1)C(=Cc1ccccc1)C(=O)CCN1CCCCC1	inactive
N#CCCN(CCC#N)c1ccc(/C=C(/NC(=O)Nc2ccccc2Cl)NC(=O)c2cc([N+](=O)[O-])ccc2Cl)cc1	inactive
C[s+]1c2ccccc2c2ccccc21	inactive
CCN(CC)CC(O)c1ccc2ccc3ccccc3c2c1 (stereo not given)	inactive
C=C1C(=O)C2=CC1CCC(=O)C1(C)CCC(OC(C)=O)C(C)(C)C1CC2O (stereo not given)	inactive
COC(=O)C12CCC(C)(C)CC1C1=CCC3C4(C)CC(O)C(O)C(C)(C(=O)OC)C4CCC3(C)C1(CO)CC2 (stereo not given)	inactive

* * *

- Tested on: HL-60
- MEASUREMENT NOTES: NCI tumour cell line growth inhibition, 48 h
Active and inactive are the calls of the source. Cut-off read from the data, not from the text of the source: active = GI50 up to about 1.1 µM and inactive = higher.
Outcome codes: T (active), F (inactive)

> print(dat)
                                    compound  label.value
 1  OC(c1cc(C23CC4CC(CC(C4)C2)C3)nc2c(Cl)cc(Cl)cc12)C1CCCCN1 (stereo not given)            F
 2  COc1ccc2ccc3c(c2c1)CN1CCc2cc(OC)c(OC)cc2C1C3 (stereo not given)            F
 3         Nc1ccccc1SCc1csc(-c2ccc(Cl)cc2)n1            F
 4  Cc1sc2nc3n(sc4nc5sc(C)c(C)c5c(=O)n43)c(=O)c2c1C            F
 5  Cc1cc(NS(=O)(=O)c2ccc(NC(=O)c3ccc4nc5ccccc5c(Nc5ccc(S(=O)(=O)Nc6cc(C)on6)cc5)c4c3)cc2)no1            F
 6  CC(=O)OCC1OC(n2c3c(c(-c4cccc5ccccc45)c(C#N)c2=S)CCCC3)C(OC(C)=O)C(OC(C)=O)C1OC(C)=O (stereo not given)            F
 7     COc1ccc2cc(CN3CCC(C4CCNCC4)CC3)ccc2c1            F
 8  O=c1c(O)c(-c2cc(O)c(O)cc2O)oc2cc(O)c(C3OC(CO)C(O)C(O)C3O)c(O)c12 (stereo not given)            F
 9  C=C(C)CC(C)(c1cc2ccccc2n1C)N1CCOCC1 (stereo not given)            F
10         O=C(/C=C/c1ccccc1)Oc1cccc2cccnc12            F
11  CN1CC[C@]23c4c5ccc(O)c4O[C@H]2C(O)CC[C@@]3(O)[C@H]1C5 (stereo not given in full)            F
12  O=C1C2CC=CCC2C(=O)C12CCc1ccccc12 (stereo not given)            F
13  Nc1n[nH]c(Nc2ccc(Cl)cc2)c1P(=O)(c1ccccc1)c1ccccc1            F
14  COc1cc(C2c3cc4c(cc3[C@@H](Nc3ccccc3)C3COC(=O)[C@H]23)OCO4)cc(OC)c1O (stereo not given in full)            T
15  COc1cc([N+](=O)[O-])c(S(=O)(=O)[O-])cc1-[n+]1nc(C(=O)Nc2ccccc2)nn1-c1ccc([N+](=O)[O-])c(S(=O)(=O)O)c1            F
16     O=S(=O)(c1cnccc1N1CCN(CCO)CC1)N1CCCC1            F
17  CCCCCC(/C=N/N)C(O)(C(F)(F)F)C(F)(F)F (stereo not given)            F
18      COc1cc2[nH]c(=O)[nH]c2c2c(C)c[nH]c12            F
19  N#Cc1c(N)c2c(c(-c3ccccc3)c1-c1ccccc1)C(=O)N(O)C2=O            F
20  COc1cc2c(cc1OC)[C@H](C)N1CCc3cc(OC)c(OC)cc3[C@@H]1C2            F

* * *

- Tested on: SK-MEL-2
- MEASUREMENT NOTES: NCI tumour cell line growth inhibition, 48 h
Calls of active or inactive are those of the source. Rule as the data show it: active = GI50 up to about 1.1 µM and inactive = higher.
Outcome codes: label 1 = active, label 0 = inactive

MOLECULE	LABEL VALUE
CC(C)(C)c1cc(C(O)(C(F)(F)F)C(F)(F)F)c2c(c1)C(C(F)(F)F)(C(F)(F)F)OC(C)(C(C)(C)C)N2 (centres undefined)	label 0
c1ccc2c(CCNC3=NCCO3)cccc2c1	label 0
C/C=C(\N=C=S)C(=O)OC1C(COC(C)=O)OC([C@]2(O)CC(=O)C(N)=C(C(=O)O)C2=O)C(O)C1OC1CC(OC)C(O)([C@@H](C)OC(=O)[C@@H](C)CC)C(C)O1 (some centres undefined)	label 0
O=C1Cc2c([nH]c3ccc([N+](=O)[O-])cc23)-c2ccccc2N1	label 1
CN1CC[C@]23c4c5ccc(O)c4O[C@H]2C(O)CC[C@@]3(O)[C@H]1C5 (some centres undefined)	label 0
O=C1c2ccccc2C(=O)c2oc(Br)cc21	label 1
CC(C)(C)[Si](Nc1ccccc1)(c1ccccc1)c1ccccc1	label 0
C#Cc1cccc(N2C(=O)CCC2=O)c1	label 0
Clc1ccc(-c2cc(-c3cc4cc(Br)ccc4nc3Cl)on2)cc1	label 0
C=C(C)[C@H]1CC(=O)[C@@]2(C)C[C@H]3O[C@]3(C)CC/C=C(\C)CC[C@H]12	label 0
COc1ccc(/C=C(\NC(=O)c2ccccc2)c2nc3ccccc3[nH]2)cc1OC	label 0
CC(=O)Nc1ccccc1S(=O)(=O)c1ccccc1	label 0
Nc1n[nH]c(Nc2ccc(Cl)cc2)c1P(=O)(c1ccccc1)c1ccccc1	label 0
CCOC(=O)NC(=O)c1cn(CCN2CCN(C(=O)CNC(=O)CNC(=O)Cn3cc(C(=O)NC(=O)OCC)c(=O)[nH]c3=O)CC2)c(=O)[nH]c1=O	label 0
O=C(NNC(=O)c1cc2ccccc2[nH]1)c1cc2ccccc2[nH]1	label 0
N#Cc1cccc(N2C(=O)C3C4C=CC(C3C2=O)C2C(=O)N(c3cccc(C#N)c3)C(=O)C42)c1 (centres undefined)	label 0
Nn1c(CCCCCCCCc2nnc(COc3ccc4ccccc4c3O)n2N)nnc1COc1ccc2ccccc2c1O	label 0
CCOC(=O)c1csc(NC(=O)CN2CCN(c3ccccc3)CC2)n1	label 0
CCOC(=O)NC(=O)c1cn(C(CC)COC(=O)NCCCCCCNC(=O)OCC(CC)n2cc(C(=O)NC(=O)OCC)c(=O)[nH]c2=O)c(=O)[nH]c1=O (centres undefined)	label 0

* * *

- Tested on: BT-549
- MEASUREMENT NOTES: NCI tumour cell line growth inhibition, 48 h
Calls of active or inactive are those of the source. Cut-off read from the data, not from the text of the source: active = GI50 up to about 1.1 µM and inactive = higher.
Outcome codes: active, inactive

> print(dat)
                                    compound  label.value
 1  CCN(CC)C(=S)SC1CCOP(=O)(N(CCCl)CCCl)N1C (configuration not stated)     inactive
 2  O=C(O)C(/C=C/c1ccccc1)c1ccccc1 (configuration not stated)     inactive
 3  CC(C)c1c(O)c(O)c2c(c1O)C(=O)C(O)=C1C(C)(C)CCC[C@@]12C     inactive
 4  C/C1=C/C2OC(=O)C3(C)C2C(CC2(C)OC1=CC2=O)OC3(O)C(C)C (configuration not stated)     inactive
 5  Nc1ccc2c(SCc3ccc([N+](=O)[O-])cc3)c3ccccc3nc2c1     inactive
 6  Cc1sc2nc3n(sc4nc5sc(C)c(C)c5c(=O)n43)c(=O)c2c1C     inactive
 7  C=C1C(=O)OC2/C=C(\CO)C3OC3C3OC3(C)CC(OC(=O)/C(=C/C)CO)C12 (configuration not stated)     inactive
 8     C/C(=N\Nc1nc2ccccc2n1C)c1cc2ccccc2cn1     inactive
 9  C#CCn1c(=O)c(C)cn(/C(=C/C(=O)OCC)C(=O)OCC)c1=O     inactive
10  CCCCCC(/C=N/N)C(O)(C(F)(F)F)C(F)(F)F (configuration not stated)     inactive
11  NC1=NN(c2ccccc2)C2(c3ccncc3C(=O)O)C1C(N)=NN2c1ccccc1 (configuration not stated)     inactive
12       O=C(O)Cc1ccccc1 [PHENYLACETIC ACID]     inactive
13  CC(O)c1cc2c(s1)C(=O)c1ccsc1C2=O (configuration not stated)       active
14  COc1ccc(NC(C(N)=O)c2cc3cc(Br)ccc3nc2Cl)cc1 (configuration not stated)     inactive
15     COc1ccc2cc(CN3CCC(C4CCNCC4)CC3)ccc2c1     inactive
16   O=C(Nc1ccccc1)N1CCN(C(=O)Nc2ccccc2)C1=S     inactive
17  Cc1cc(C2(O)C=C(C(C)(C)C)C(=O)C(C(C)(C)C)=C2)c(C)cc1C1(O)C=C(C(C)(C)C)C(=O)C(C(C)(C)C)=C1     inactive
18                     CN(C)c1nncc2[nH]cnc12     inactive
19  COc1ccc(/C=C/C(=O)c2cccc(C(=O)/C=C/c3ccc(OC)c(OC)c3)n2)cc1OC     inactive
20  CCCCP(CCCC)(CCCC)=C(C(=O)OC)C(C(=O)OC)=C1SC(C(=O)OC)=C(C(=O)OC)S1     inactive
21          Cn1c(=S)[nH]c(N)c(Cc2ccccc2)c1=O     inactive
22                C#Cc1cccc(N2C(=O)CCC2=O)c1     inactive
